Origin of values: patent US20250304927A1

Biological target: T1, thermostable variant of Streptomyces mobaraensis transglutaminase (Streptomyces mobaraensis, UniProt P81453 79-407)
T1 sequence: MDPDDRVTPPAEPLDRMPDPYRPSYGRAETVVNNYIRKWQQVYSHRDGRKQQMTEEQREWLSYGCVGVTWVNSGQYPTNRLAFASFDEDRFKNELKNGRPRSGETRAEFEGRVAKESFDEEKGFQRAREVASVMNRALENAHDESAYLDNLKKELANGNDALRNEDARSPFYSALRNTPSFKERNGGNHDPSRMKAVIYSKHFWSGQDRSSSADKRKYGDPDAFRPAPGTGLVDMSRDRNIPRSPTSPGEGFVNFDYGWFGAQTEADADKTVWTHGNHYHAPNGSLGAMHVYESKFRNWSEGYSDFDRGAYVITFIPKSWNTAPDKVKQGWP
Experiment: cell-based or functional assay
So I've got a bunch of binders here, and I need their Improvement in pH responsiveness of inhibitory peptide relative to WT values.

Please review the entries below; each comes with its answer.
> print(dat)
                                     binder       value
1  MDNGAGEETKSTAETYRLTADDVANINALNESAPAASSAGPSFRAP [pro-peptide variant Y12T]  > 1.2 fold
2  MDNGAGEETDSYAETYRLTADDVANINALNESAPAASSAGPSFRAP [pro-peptide variant K10D]  > 1.2 fold
3  MDNGAGVETKSYAETYRLTADDVANINALNESAPAASSAGPSFRAP [pro-peptide variant E7V]    > 5 fold

// switching to the query binder
Query: What value of measured Improvement in pH responsiveness of inhibitory peptide relative to WT is listed for MDNGAGTETKSYAETYRLTADDVANINALNESAPAASSAGPSFRAP [pro-peptide variant E7T] ?
Reply: > 1.2 fold
